tested on: ACVR2A; settings: Compound Concentration (nM):1000;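 also: KINOMEscan scanMAX binding as percent activity remaining versus control; lower means stronger binding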
Catalogue of Percent Control values
Give just the numeric value; % need not be written.

Worked cases, Percent Control given:
NS(=O)(=O)c1ccc(Nc2ncc(-c3ccccc3)o2)cc1 [GW572399X]    100
NS(=O)(=O)c1ccc(N/N=C2\C(=O)Nc3ccc(-c4cnco4)cc32)cc1    90
COc1ccc2c(-c3ccnc(Nc4cccc(OC(F)(F)F)c4)n3)cnn2n1 [GW810372X]    100
COc1cc(N2CCN(C(C)C)CC2)ccc1Nc1nc(Nc2ccc(F)cc2C(=O)NC[C@@H](O)CO)c2cc[nH]c2n1 [GSK1392956A]    100

Enquiry: So what does the record say about Percent Control for COc1ccc2[nH]c3c4[nH]c5ccc(OC)cc5c4c4c(c3c2c1)C(=O)NC4=O [GW296115X] ?
Return: 58

Enquiry: And the next one, CC(C)COC(=O)c1ccc2c(c1)/C(=C/Nc1ccc(S(N)(=O)=O)cc1)C(=O)N2 [GW416981X] ?
Return: 100

Enquiry: And the next one, CC1=C(C(=O)Nc2ccc3[nH]ncc3c2)C(c2ccc(Cl)c(Cl)c2)CC(=O)N1 (stereo not shown) [GSK299115A] ?
Return: 80

Enquiry: And the next one, "COc1ccc2cc(-c3c(-c4ccncc4)nc(-c4ccc(S(C)(=O)=O)cc4C)n3C)ccc2c1" ?
Return: 100

Enquiry: And the next one, Cl.O=C(Nc1ccc(Oc2ccc3[nH]c(NC(=O)c4ccccc4)nc3c2)cc1)Nc1cc(C(F)(F)F)ccc1F [GW709042A] ?
Return: 100

Enquiry: And the next one, NS(=O)(=O)c1ccc(N/N=C2\C(=O)Nc3ccc(C(=O)NCc4ccncc4)cc32)cc1 [GW300657X] ?
Return: 100

Enquiry: And the next one, "CCc1ccc(Oc2nccc(-c3c(-c4ccc(F)cc4)ncn3C3CCNCC3)n2)cc1" ?
Return: 100

Enquiry: And the next one, C[C@@H](Oc1cc(-n2cnc3ccc(OC4CCN(C)CC4)cc32)sc1C(N)=O)c1ccccc1Cl [GSK579289A] ?
Return: 57

Enquiry: And the next one, COc1cccc(-c2c[nH]c3c(N/N=C/c4ccncc4)ncnc23)c1 [GW814408X] ?
Return: 75

* * *

system: CDC2L5; construct: gene CDK13; details: Compound Concentration (nM):1000
ASSAY_ENDPOINT: Percent Control (%)
Give just the numeric value; % need not be written.

Worked cases, Percent Control given:
COc1cc2ncnc(Nc3ccc4c(cnn4Cc4ccccc4)c3)c2cc1OC.Cl [GW282449A]    100
O=C(Nc1n[nH]c2nc(-c3ccc(O)cc3)c(Br)cc12)C1CC1    90
NS(=O)(=O)c1ccc(N/N=C2\C(=O)Nc3ccc(C(=O)NCc4ccncc4)cc32)cc1 [GW300657X]    24
Cl.O=C(Nc1ccc(Oc2ccc3[nH]c(NC(=O)c4ccccc4)nc3c2)cc1)Nc1cc(C(F)(F)F)ccc1F [GW709042A]    100
Cl.c1ccc(Cc2nc3ccc(Nc4ncnc5ccccc45)cc3[nH]2)cc1 [GR269666A]    100

Okay, next one:
Enquiry: So what does the record say about Percent Control for COc1cc2ncn(-c3cc(O[C@H](C)c4ccccc4Cl)c(C(N)=O)s3)c2cc1OC [GSK237701A] ?
Return: 75

* * *

tested on: CSNK1G3; conditions: Compound Concentration (nM):1000
Catalogue of Percent Control values

NS(=O)(=O)c1ccc(N/N=C2\C(=O)Nc3ccc(-c4cnco4)cc32)cc1 [GW276655]    91%
Cl.c1ccc(Cc2nc3ccc(Nc4ncnc5ccccc45)cc3[nH]2)cc1 [GR269666A]    100%
NS(=O)(=O)c1ccc(N/N=C2\C(=O)Nc3ccc(C(=O)NCc4ccncc4)cc32)cc1 [GW300657X]    67%

Enquiry: Find the measured Percent Control: item COc1ccccc1-c1cc(/C=C2\C(=O)Nc3ncc(Br)cc32)cc(Br)c1O [GW442130X] , target or system CSNK1G3.
Return: 100%

Enquiry: And the next one, NS(=O)(=O)c1ccc(Nc2ncc(-c3ccccc3)o2)cc1 [GW572399X] ?
Return: 100%

* * *

tested on: GRK3; construct: gene ADRBK2; details: Compound Concentration (nM):1000
Catalogue of Percent Control values
Give just the numeric value; % need not be written.

Worked cases, Percent Control given:
Cl.O=C(O[C@H]1CN[C@H](C#Cc2cc3ncnc(Nc4ccc5c(cnn5Cc5ccccc5)c4)c3s2)C1)N1CCOCC1 [GSK200398A]    80
CCn1c(-c2nonc2N)nc2c(C#CC(C)(C)O)nc(OCCNC)cc21.Cl    100
C/C(Nc1ccc(S(N)(=O)=O)cc1)=C1/C(=O)Nc2ccccc21 [GW335962X]    100
NS(=O)(=O)c1ccc(N/N=C2\C(=O)Nc3ccc(Cl)cc32)cc1 [GW280670X]    100

Okay, next one:
Enquiry: So what does the record say about Percent Control for CN(C)c1cc2c(Nc3ccc4c(cnn4Cc4ccccc4)c3)ncnc2cn1 [GW282974X] ?
Return: 86

* * *

tested on: FGFR3(G697C); details: Compound Concentration (nM):1000
ASSAY_ENDPOINT: Percent Control (%)
Give just the numeric value; % need not be written.

C/C(Nc1ccc(S(N)(=O)=O)cc1)=C1/C(=O)Nc2ccccc21 [GW335962X]    100
Cl.O=C(O[C@H]1CN[C@H](C#Cc2cc3ncnc(Nc4ccc5c(cnn5Cc5ccccc5)c4)c3s2)C1)N1CCOCC1 [GSK200398A]    86
COc1cc2ncnc(Nc3ccc4c(cnn4Cc4ccccc4)c3)c2cc1OC.Cl [GW282449A]    100

Enquiry: So what does the record say about Percent Control for Nc1ncnc2occ(-c3ccc(NC(=O)Nc4cc(C(F)(F)F)ccc4F)cc3)c12 [GW770249X] ?
Return: 78

Enquiry: And the next one, NS(=O)(=O)c1ccc(N/N=C2\C(=O)Nc3ccc(Cl)cc32)cc1 [GW280670X] ?
Return: 100

Enquiry: And the next one, Cl.O=S1CCN(Cc2ccc(-c3ccc4ncnc(Nc5ccc(OCc6ccccc6)c(F)c5)c4c3)o2)CC1 [GW576924A] ?
Return: 100

Enquiry: And the next one, COc1ccc2c(-c3ccnc(Nc4cccc(OC(F)(F)F)c4)n3)cnn2n1 [GW810372X] ?
Return: 75

Enquiry: And the next one, COc1ccccc1-c1cc(/C=C2\C(=O)Nc3ncc(Br)cc32)cc(Br)c1O [GW442130X] ?
Return: 100

* * *

Catalogue of Percent Control values
system: ABL1(F317I)-phosphorylated; conditions: Compound Concentration (nM):1000
Give just the numeric value; % need not be written.

Worked cases, Percent Control given:
CC(C)COC(=O)c1ccc2c(c1)/C(=C/Nc1ccc(S(N)(=O)=O)cc1)C(=O)N2 [GW416981X]    83
NS(=O)(=O)c1ccc(Nc2ncc(-c3ccccc3)o2)cc1 [GW572399X]    87
NS(=O)(=O)c1ccc(N/N=C2\C(=O)Nc3ccc(C(=O)NCCc4c[nH]cn4)cc32)cc1 [GW300660X]    77
COc1cccc(-c2c[nH]c3c(N/N=C/c4ccncc4)ncnc23)c1 [GW814408X]    66
COc1ccc2[nH]c3c4[nH]c5ccc(OC)cc5c4c4c(c3c2c1)C(=O)NC4=O [GW296115X]    73

Enquiry: So what does the record say about Percent Control for Cl.O=C(Nc1ccc(Oc2ccc3[nH]c(NC(=O)c4ccco4)nc3c2)cc1)Nc1cc(C(F)(F)F)ccc1F [GW683134A] ?
Return: 53

* * *

test system: BIKE; construct: gene BMP2K; settings: Compound Concentration (nM):1000
Catalogue of Percent Control values
Give just the numeric value; % need not be written.

Nc1ncnc2occ(-c3ccc(NC(=O)Nc4cc(C(F)(F)F)ccc4F)cc3)c12 [GW770249X]    100
CN(C)CCNC(=O)Nc1ccc(N(C)c2ccnc(Nc3ccc(CS(C)(=O)=O)cc3)n2)cc1.Cl [GW830900A]    5.1
CC1=C(C(=O)Nc2ccc3[nH]ncc3c2)C(c2ccc(Cl)c(Cl)c2)CC(=O)N1 (centres unmarked) [GSK299115A]    100

Enquiry: So what does the record say about Percent Control for COc1cc(N2CCN(C(C)C)CC2)ccc1Nc1nc(Nc2ccc(F)cc2C(=O)NC[C@@H](O)CO)c2cc[nH]c2n1 [GSK1392956A] ?
Return: 81

Enquiry: And the next one, Cl.O=C(Nc1ccc(Oc2ccc3[nH]c(NC(=O)c4ccco4)nc3c2)cc1)Nc1cc(C(F)(F)F)ccc1F [GW683134A] ?
Return: 100

Enquiry: And the next one, C/C(Nc1ccc(S(N)(=O)=O)cc1)=C1/C(=O)Nc2ccccc21 [GW335962X] ?
Return: 100

Enquiry: And the next one, NS(=O)(=O)c1ccc(N/N=C2\C(=O)Nc3ccc(Cl)cc32)cc1 [GW280670X] ?
Return: 100

Enquiry: And the next one, "COc1ccc2cc(-c3c(-c4ccncc4)nc(-c4ccc(S(C)(=O)=O)cc4C)n3C)ccc2c1" ?
Return: 100

Enquiry: And the next one, COC(=O)Nc1nc2ccc(Oc3ccc(NC(=O)Nc4cc(C(F)(F)F)ccc4F)cc3)cc2s1.Cl [GW693917A] ?
Return: 75

Enquiry: And the next one, COc1cccc(-c2c[nH]c3c(N/N=C/c4ccncc4)ncnc23)c1 [GW814408X] ?
Return: 38

Enquiry: And the next one, COc1ccc2c(-c3ccnc(Nc4cccc(OC(F)(F)F)c4)n3)cnn2n1 [GW810372X] ?
Return: 58

Enquiry: And the next one, Cl.O=S1CCN(Cc2ccc(-c3ccc4ncnc(Nc5ccc(OCc6ccccc6)c(F)c5)c4c3)o2)CC1 [GW576924A] ?
Return: 100

Enquiry: And the next one, "NS(=O)(=O)c1ccc(N/N=C2\C(=O)Nc3ccc(-c4cnco4)cc32)cc1" ?
Return: 20

Enquiry: And the next one, Cl.O=C(O[C@H]1CN[C@H](C#Cc2cc3ncnc(Nc4ccc5c(cnn5Cc5ccccc5)c4)c3s2)C1)N1CCOCC1 [GSK200398A] ?
Return: 100
